- Tested on: Aspergillus fumigatus
- protocolSummary: Antifungal activity against Aspergillus fumigatus ATCC 96918 after 24 hrs by twofold serial dilution method
- Format: functional
- measurementConditions: ATCC 96918, 24 h
propertyName: MIC (µg/mL)
One number for each entry, in µg/mL.

Recorded MIC, per entry:
# molecularString, measValue
rows = [
    ("OC(Cn1c[n+](Cc2ccccc2Cl)cn1)(Cn1c[n+](Cc2ccccc2Cl)cn1)c1ccc(F)cc1F.[Cl-].[Cl-]", 32),
    ("OC(Cn1c[n+](Cc2ccccc2)cn1)(Cn1c[n+](Cc2ccccc2)cn1)c1ccc(F)cc1F.[Br-].[Br-]", 128),
    ("Cc1cccc(C[n+]2cnn(CC(O)(Cn3c[n+](Cc4cccc(C)c4)cn3)c3ccc(F)cc3F)c2)c1.[Br-].[Br-]", 256),
]

State recorded MIC for all listed compounds.
1. OC(Cn1c[n+](Cc2ccc(Cl)cc2Cl)cn1)(Cn1c[n+](Cc2ccc(Cl)cc2Cl)cn1)c1ccc(F)cc1F.[I-].[I-]
2. OC(Cn1c[n+](CCOc2ccc3ccccc3c2)cn1)(Cn1c[n+](CCOc2ccc3ccccc3c2)cn1)c1ccc(F)cc1F.[Br-].[Br-]

[reply]
1: 32; 2: 128
